- Target System: CRISPR KI D538G (Homo sapiens, UniProt P03372, D538G)
- Construct: endogenous in cells; host or cells: CRISPR knock-in clones (cl. 50, cl. 65)
- Sequence (P03372 whole entry D538G): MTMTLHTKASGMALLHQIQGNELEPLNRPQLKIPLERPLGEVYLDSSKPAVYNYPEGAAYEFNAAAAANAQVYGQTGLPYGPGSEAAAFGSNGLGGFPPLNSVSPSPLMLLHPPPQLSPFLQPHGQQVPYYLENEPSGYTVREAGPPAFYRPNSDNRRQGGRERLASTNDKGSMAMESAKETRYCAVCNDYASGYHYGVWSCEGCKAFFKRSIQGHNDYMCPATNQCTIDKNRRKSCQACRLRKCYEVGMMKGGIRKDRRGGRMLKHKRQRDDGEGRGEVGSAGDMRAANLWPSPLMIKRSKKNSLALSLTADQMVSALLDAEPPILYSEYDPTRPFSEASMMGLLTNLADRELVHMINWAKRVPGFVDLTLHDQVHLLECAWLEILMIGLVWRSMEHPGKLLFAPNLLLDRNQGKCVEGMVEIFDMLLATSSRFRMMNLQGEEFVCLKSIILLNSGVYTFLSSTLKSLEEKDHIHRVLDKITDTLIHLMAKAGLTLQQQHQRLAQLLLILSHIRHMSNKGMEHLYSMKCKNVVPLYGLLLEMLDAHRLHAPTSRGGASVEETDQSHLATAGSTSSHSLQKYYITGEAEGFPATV
- Test: Luciferase assay, CRISPR KI D538G clones
- Assay type: cell-based
- Reported Conditions: clone 65
Consider the following compounds and their measured CRISPR KI (% Inhibition) D538G cl. 65 readings.
Measure Name: CRISPR KI (% Inhibition) D538G cl. 65 (%)

- Smi: "O=C(NCCCCOc1ccc(C(=C2C3CC4CC(C3)CC2C4)c2ccc(O)cc2)cc1)C12CC3CC(CC1C3)C2"
  Target System: "CRISPR KI D538G (Homo sapiens, UniProt P03372, D538G)"
  Measure Name: "CRISPR KI (% Inhibition) D538G cl. 65"
  Display Unit: "%"
  Reading: 78
- Smi: "O=C(NCCCCOc1ccc(C(=C2C3CC4CC(C3)CC2C4)c2ccc(O)cc2)cc1)[C@H]1C[C@@H]2C=C[C@H]1C2"
  Target System: "CRISPR KI D538G (Homo sapiens, UniProt P03372, D538G)"
  Measure Name: "CRISPR KI (% Inhibition) D538G cl. 65"
  Display Unit: "%"
  Reading: 72
- Smi: "O=C(NCCCCOc1ccc(C(=C2C3CC4CC(C3)CC2C4)c2ccc(O)cc2)cc1)C1CCCCC1"
  Target System: "CRISPR KI D538G (Homo sapiens, UniProt P03372, D538G)"
  Measure Name: "CRISPR KI (% Inhibition) D538G cl. 65"
  Display Unit: "%"
  Reading: 84
- Smi: "O=C(NCCCCOc1ccc(C(=C2C3CC4CC(C3)CC2C4)c2ccc(O)cc2)cc1)C12CC3CC(CC(C3)C1)C2"
  Target System: "CRISPR KI D538G (Homo sapiens, UniProt P03372, D538G)"
  Measure Name: "CRISPR KI (% Inhibition) D538G cl. 65"
  Display Unit: "%"
  Reading: 73
- Smi: "O=C(NCCCCOc1ccc(C(=C2C3CC4CC(C3)CC2C4)c2ccc(O)cc2)cc1)C1CCCCCC1"
  Target System: "CRISPR KI D538G (Homo sapiens, UniProt P03372, D538G)"
  Measure Name: "CRISPR KI (% Inhibition) D538G cl. 65"
  Display Unit: "%"
  Reading: 80
- Smi: "O=C(NCCCCOc1ccc(C(=C2C3CC4CC(C3)CC2C4)c2ccc(O)cc2)cc1)C1CCC1"
  Target System: "CRISPR KI D538G (Homo sapiens, UniProt P03372, D538G)"
  Measure Name: "CRISPR KI (% Inhibition) D538G cl. 65"
  Display Unit: "%"
  Reading: 65
- Smi: "CC(C)(C)OC(=O)N[C@@H](Cc1c[nH]c2ccccc12)C(=O)NCCCCOc1ccc(C(=C2C3CC4CC(C3)CC2C4)c2ccc(O)cc2)cc1"
  Target System: "CRISPR KI D538G (Homo sapiens, UniProt P03372, D538G)"
  Measure Name: "CRISPR KI (% Inhibition) D538G cl. 65"
  Display Unit: "%"
  Reading: 71
